From: PubChem BioAssay AID2445

# SYSTEM_TESTED: Oxytocin receptor (Homo sapiens)
# MEASUREMENT_DESCRIPTION: human OXTR potentiators, primary screen, fluorescence, CHO-OTR cells, Fluo-8 calcium (AID 2445);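 also: 100% uses oxytocin at 75 nM as the full agonist control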
# STUDY_CONDITIONS: Fluo-8 calcium fluorescence, potentiator mode, at 3 µM, hits give high values, 0% = oxytocin EC15, 100% = EC100
The campaign covered roughly 320,000 compounds. About 200 (0.062%) were called active. The entries come from a sample that favours actives as a whole.
Parameter activation: see the listing below.
Give the value, in units of %, as a plain number.

Below, each entry is followed by its recorded activation result.
| MOLECULE | activation, % |
| --- | --- |
| CSc1nnnn1-c1c(C)cc(C)cc1C | -1.91 |
| CC(C)CCn1c(CN(C)Cc2ccccc2)nc2c1c(=O)n(C)c(=O)n2C | -2.79 |
| COc1ccc(OCC(=O)Nc2nnc(-c3ccco3)s2)cc1 | -4.78 |
| O=C(CCc1nnc2ccc(NCc3ccccc3Cl)nn12)NCC1CCN(C2CCCC2)C1 (configuration not stated) | -8.06 |

QUERY: Please give the documented activation of O=C(COC(=O)Cn1cnc2ccccc21)Nc1cccc2c1C(=O)c1ccccc1C2=O
RESULT: -2.58

====

# SYSTEM_TESTED: Oxytocin receptor (Homo sapiens)
# MEASUREMENT_DESCRIPTION: human OXTR potentiators, primary screen, fluorescence, CHO-OTR cells, Fluo-8 calcium (AID 2445);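 also: 100% uses oxytocin at 75 nM as the full agonist control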
# STUDY_CONDITIONS: Fluo-8 calcium fluorescence, potentiator mode, at 3 µM, hits give high values, 0% = oxytocin EC15, 100% = EC100
Screen size: about 320,000 compounds; about 200 (0.062%) were called active. The sample holds actives, similar compounds and a random draw of the others, so the mix is not that of the screen.
ASSAY_ENDPOINT: activation

Below, each entry is followed by its recorded activation result.
| MOLECULE | SYSTEM_TESTED | ASSAY_ENDPOINT | MEAS_VALUE |
| --- | --- | --- | --- |
| COc1ccc2[nH]c(=O)c(CN(Cc3cccnc3)S(=O)(=O)c3ccccc3F)cc2c1 | Oxytocin receptor (Homo sapiens) | activation | -13.1% (inactive) |
| CN(Cc1ccccc1Cl)C(=O)C1CCC(=O)N(CCc2cccc(F)c2)C1 (stereo not given) | Oxytocin receptor (Homo sapiens) | activation | 5.76% (inactive) |

QUERY: Please give the documented activation of Cc1ccc(NC(=O)COc2coc(CN3CCc4ccccc4C3)cc2=O)cc1Cl
RESULT: -8.11% (inactive)

QUERY: Please give the documented activation of O=C(NCCCN1CCCCC1)C1CCCN(c2ncnc3c2nc2n3CCCCC2)C1 (stereo not given)
RESULT: -5.62% (inactive)

QUERY: Please give the documented activation of Cc1cccc2c1-c1sc(C(=O)NCCCN3CCc4ccccc4C3)cc1CO2
RESULT: -6.4% (inactive)

QUERY: Please give the documented activation of C=CCOC(=O)C1=C[C@@H](c2ccc3c(c2)OCO3)C[C@@H](OCCCCO)O1
RESULT: -0.78% (inactive)

QUERY: Please give the documented activation of CCOc1ccccc1NC(=O)CCc1nnc2ccc(NCc3ccco3)nn12
RESULT: 0.12% (inactive)

====

# SYSTEM_TESTED: Oxytocin receptor (Homo sapiens) (UniProt P30559)
# Sequence (P30559 whole entry, looked up): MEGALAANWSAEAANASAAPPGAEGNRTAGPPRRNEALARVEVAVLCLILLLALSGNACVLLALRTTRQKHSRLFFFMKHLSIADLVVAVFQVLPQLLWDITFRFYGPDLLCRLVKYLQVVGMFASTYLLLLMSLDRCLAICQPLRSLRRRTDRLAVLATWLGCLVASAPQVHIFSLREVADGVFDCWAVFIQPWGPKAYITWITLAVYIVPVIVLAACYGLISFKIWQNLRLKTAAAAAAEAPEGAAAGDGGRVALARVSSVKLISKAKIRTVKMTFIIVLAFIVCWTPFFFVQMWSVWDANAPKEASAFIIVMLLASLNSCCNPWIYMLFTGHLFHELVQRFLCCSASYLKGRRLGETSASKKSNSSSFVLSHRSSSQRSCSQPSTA
# MEASUREMENT_DESCRIPTION: human OXTR potentiators, primary screen, fluorescence, CHO-OTR cells, Fluo-8 calcium (AID 2445);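 also: 100% uses oxytocin at 75 nM as the full agonist control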
# STUDY_CONDITIONS: Fluo-8 calcium fluorescence, potentiator mode, at 3 µM, hits give high values, 0% = oxytocin EC15, 100% = EC100
The whole screen tested about 320,000 compounds, of which about 200 (0.062%) were called active. Shown is part of a subset that was picked to be rich in actives.
Parameter activation: see the listing below.
Give the value, in units of %, as a plain number.

QUERY: Please give the documented activation of CCOC(=O)N1CCN(Cc2oc(CO)cc(=O)c2O)CC1
RESULT: -9.68

====

# SYSTEM_TESTED: Oxytocin receptor (Homo sapiens) (UniProt P30559)
# MEASUREMENT_DESCRIPTION: human OXTR potentiators, primary screen, fluorescence, CHO-OTR cells, Fluo-8 calcium (AID 2445);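 also: 100% uses oxytocin at 75 nM as the full agonist control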
# STUDY_CONDITIONS: Fluo-8 calcium fluorescence, potentiator mode, at 3 µM, hits give high values, 0% = oxytocin EC15, 100% = EC100
In all, about 320,000 compounds went through this assay and about 200 (0.062%) were called active. Shown is part of a subset that was picked to be rich in actives.
ASSAY_ENDPOINT: activation (%)
Give the value, in units of %, as a plain number.

Below, each entry is followed by its recorded activation result.
| SUBSTANCE_SMILES | activation (%) |
| --- | --- |
| COC(=O)C1CCN(C(=O)COC(=O)c2cc(S(=O)(=O)N3CCOCC3)ccc2C)CC1 | -5.03 |
| Cc1ccc(S(=O)(=O)N(C)c2ccc(OCC(=O)OCc3ccc(C#N)cc3)cc2)cc1 | -6.02 |

Now look at this entry.
QUERY: Please give the documented activation of CN1CCN(c2ccc(CNS(=O)(=O)c3cccc(F)c3)cc2)CC1
RESULT: -0.68

====

# SYSTEM_TESTED: Oxytocin receptor (Homo sapiens) (UniProt P30559)
# MEASUREMENT_DESCRIPTION: human OXTR potentiators, primary screen, fluorescence, CHO-OTR cells, Fluo-8 calcium (AID 2445);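 also: 100% uses oxytocin at 75 nM as the full agonist control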
# STUDY_CONDITIONS: Fluo-8 calcium fluorescence, potentiator mode, at 3 µM, hits give high values, 0% = oxytocin EC15, 100% = EC100
Screen size: about 320,000 compounds; about 200 (0.062%) were called active. Many of the other results were omitted from the sample, so actives are more common in it than they were.
ASSAY_ENDPOINT: activation (%)
Give the value, in units of %, as a plain number.

Below, each entry is followed by its recorded activation result.
| MOLECULE | UNIT_TAG | MEAS_VALUE |
| --- | --- | --- |
| Cc1cc(NC(=O)CSc2nc(=O)cc(N)n2-c2ccc(F)cc2)no1 | % | 0.45 |
| Cc1cc(C)cc(NC(=O)CN2C(=O)c3ccccc3C2=O)c1 | % | -3.2 |

QUERY: Please give the documented activation of COc1ccccc1C(=O)NC(=S)Nc1ccccc1N1CCCCC1
RESULT: -5.57

====

# SYSTEM_TESTED: Oxytocin receptor (Homo sapiens)
# MEASUREMENT_DESCRIPTION: human OXTR potentiators, primary screen, fluorescence, CHO-OTR cells, Fluo-8 calcium (AID 2445);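 also: 100% uses oxytocin at 75 nM as the full agonist control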
# STUDY_CONDITIONS: Fluo-8 calcium fluorescence, potentiator mode, at 3 µM, hits give high values, 0% = oxytocin EC15, 100% = EC100
Out of some 320,000 compounds screened, about 200 (0.062%) were called active. This is one part of a sample in which actives are shown more often than they occur.
ASSAY_ENDPOINT: activation

Below, each entry is followed by its recorded activation result.
| COMPOUND | SYSTEM_TESTED | MEAS_VALUE |
| --- | --- | --- |
| Cc1ccc(CNC(=O)C2CCCN2S(=O)(=O)c2ccc3c(c2)C(C)(C)C(=O)N3C)cc1 (stereo not drawn) | Oxytocin receptor (Homo sapiens) | -1.94% (inactive) |
| Cc1cc(C)cc(NC(=O)CSc2ccccc2)c1 | Oxytocin receptor (Homo sapiens) | 12.9% (active) |
| O=C(Nc1ccc(F)cc1)C1CCN(C(=O)c2ccc([N+](=O)[O-])cc2)CC1 | Oxytocin receptor (Homo sapiens) | -7.48% (inactive) |
| CC(C)=CCc1c(O)c(CC=C(C)C)c2occ(-c3ccc(O)cc3)c(=O)c2c1O | Oxytocin receptor (Homo sapiens) | -5.45% (inactive) |
| O=C(Nc1nc(-c2ccco2)c(-c2ccco2)s1)c1ccco1 | Oxytocin receptor (Homo sapiens) | -4.21% (inactive) |
| Cc1cccn2c(=O)nc(SCC(=O)NCc3ccccc3Cl)nc12 | Oxytocin receptor (Homo sapiens) | -9.43% (inactive) |

Now look at this entry.
QUERY: Please give the documented activation of Cc1cc(C)cc(N(CCC#N)C(=O)CN2C(=O)NC3(CCCC3)C2=O)c1
RESULT: -5.16% (inactive)

====

Parameter activation: see the listing below.
# SYSTEM_TESTED: Oxytocin receptor (Homo sapiens)
# MEASUREMENT_DESCRIPTION: human OXTR potentiators, primary screen, fluorescence, CHO-OTR cells, Fluo-8 calcium (AID 2445);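 also: 100% uses oxytocin at 75 nM as the full agonist control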
# STUDY_CONDITIONS: Fluo-8 calcium fluorescence, potentiator mode, at 3 µM, hits give high values, 0% = oxytocin EC15, 100% = EC100
In all, about 320,000 compounds went through this assay and about 200 (0.062%) were called active. The list comes from a sample in which actives are over-represented; it also holds close analogues and randomly drawn compounds.
Give the value, in units of %, as a plain number.

Below, each entry is followed by its recorded activation result.
| SUBSTANCE_SMILES | MEAS_VALUE |
| --- | --- |
| COC(=O)C1=C[C@@H](C(=O)OC)[C@@H]2C3=C(C(=O)[C@]2(C)NC(=O)c2ccccc2)[C@H](C)n2c(=O)n(C)c(=O)n2[C@@H]3C1 | -11.9 |
| O=C(Cn1cc(C(F)(F)F)ccc1=O)Nc1ccc2c(c1)OCCO2 | 2.63 |
| O=C(NCCc1ccccn1)c1cc(C(=O)C2CCCCC2)c[nH]1 | -8.37 |
| CSc1cccc(NC(=O)CSc2ccccc2)c1 | -15.7 |
| CC(C)Cn1c(CN(Cc2ccccc2)Cc2ccccc2)nc2c1c(=O)n(C)c(=O)n2C | -4.31 |

Now look at this entry.
QUERY: Please give the documented activation of COc1ccccc1CSc1ncc(-c2ccc([N+](=O)[O-])cc2)[nH]1
RESULT: -15.7
